experiment: Plasma levels of (+)-α-dihydrotetrabenazine up to 7 hours after oral dosing of human volunteers (Example 1B); format: in vivo; conditions: 7.5 mg, 7.5 mg oral, 6 h, subject 1 (112 kg)
PROPERTY LABEL: concentration at 6 h

> print(dat)
                                   compound      result
1  COc1cc2c(cc1OC)[C@H]1C[C@@H](O)[C@H](CC(C)C)CN1CC2 [(+)-α-dihydrotetrabenazine]  3.65 ng/mL
